# Tgt: D(2) dopamine receptor (Homo sapiens)
# Sequence (P14416 whole entry): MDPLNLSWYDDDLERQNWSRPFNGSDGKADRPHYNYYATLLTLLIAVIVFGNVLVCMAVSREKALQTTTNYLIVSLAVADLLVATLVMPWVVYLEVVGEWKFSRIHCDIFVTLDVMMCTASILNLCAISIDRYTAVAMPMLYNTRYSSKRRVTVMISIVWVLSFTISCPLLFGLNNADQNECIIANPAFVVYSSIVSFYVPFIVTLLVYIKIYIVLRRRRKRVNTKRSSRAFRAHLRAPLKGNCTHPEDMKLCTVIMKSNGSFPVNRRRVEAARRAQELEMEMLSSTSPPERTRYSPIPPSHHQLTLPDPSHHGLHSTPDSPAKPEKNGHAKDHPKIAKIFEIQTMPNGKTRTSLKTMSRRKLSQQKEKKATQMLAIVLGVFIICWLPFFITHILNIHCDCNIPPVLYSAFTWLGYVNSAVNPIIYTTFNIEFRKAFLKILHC
# Measurement notes: biochemical
pKi: −log10 of the molar value.
Below is a list of entries, each paired with its recorded pKi value.
Endpoint label: pKi

Smiles input: Cc1c(S(=O)(=O)NCCCCN2CCN(c3noc4ccccc34)CC2)sc2ccc(F)cc12
Number: 7.34

Smiles input: Cc1cccc(S(=O)(=O)NCCCN2CCC(c3noc4cc(F)ccc34)CC2)c1
Number: 7.80

Smiles input: O=S(=O)(NCCCCN1CCN(c2noc3ccccc23)CC1)c1ccc(Cl)c(Cl)c1
Number: 7.24

Smiles input: O=S(=O)(NCCCN1CCN(c2nsc3ccccc23)CC1)c1ccc2ccccc2c1
Number: 8.66

Smiles input: Cc1cccc(S(=O)(=O)NCCCN2CCN(c3nsc4ccccc34)CC2)c1
Number: 7.89

Smiles input: Cc1cccc(S(=O)(=O)NCCCN2CCN(c3noc4ccccc34)CC2)c1
Number: 5.70

Smiles input: O=S(=O)(NCCCCN1CCC(c2noc3cc(F)ccc23)CC1)c1cc2ccc(Cl)cc2s1
Number: 8.92

Smiles input: O=S(=O)(NCCCCN1CCN(c2nsc3ccccc23)CC1)c1cc2ccccc2s1
Number: 7.82

Smiles input: O=S(=O)(NCCCCN1CCN(c2nsc3ccccc23)CC1)c1cccs1
Number: 8.49

Smiles input: O=S(=O)(NCCCCN1CCC(c2noc3cc(F)ccc23)CC1)c1cccc2scnc12
Number: 7.60

Smiles input: O=S(=O)(NCCCN1CCN(c2nsc3ccccc23)CC1)c1cc2ccccc2s1
Number: 7.32

Smiles input: O=S(=O)(NCCCCN1CCN(c2nsc3ccccc23)CC1)c1ccc(Cl)c(Cl)c1
Number: 7.57

Smiles input: O=S(=O)(NCCCCN1CCN(c2nsc3ccccc23)CC1)c1ccc2cc(Cl)ccc2c1
Number: 7.31

Smiles input: O=S(=O)(NCCCN1CCC(c2noc3cc(F)ccc23)CC1)c1cccc2ccccc12
Number: 8.40

Smiles input: O=S(=O)(NCCCCN1CCN(c2noc3ccccc23)CC1)c1ccc(OC(F)(F)F)cc1
Number: 6.40

Smiles input: O=S(=O)(NCCCCN1CCC(c2noc3cc(F)ccc23)CC1)c1cccc2ccccc12
Number: 8.52

Smiles input: O=S(=O)(NCCCCN1CCC(c2noc3cc(F)ccc23)CC1)c1cc2ccccc2s1
Number: 8.70

Smiles input: Cc1c(S(=O)(=O)NCCCCN2CCN(c3nsc4ccccc34)CC2)sc2ccc(F)cc12
Number: 7.36

Smiles input: O=S(=O)(NCCCCN1CCN(c2noc3ccccc23)CC1)c1cc2ccc(Cl)cc2s1
Number: 7.27

Smiles input: O=S(=O)(NCCCCN1CCN(c2noc3ccccc23)CC1)c1ccc2ccccc2c1
Number: 7.82

###

Below is a list of entries, each paired with its recorded inhibition at 1 µM value.
# Tgt: hERG (KCNH2) potassium channel (Homo sapiens)
# Sequence (Q12809 whole entry): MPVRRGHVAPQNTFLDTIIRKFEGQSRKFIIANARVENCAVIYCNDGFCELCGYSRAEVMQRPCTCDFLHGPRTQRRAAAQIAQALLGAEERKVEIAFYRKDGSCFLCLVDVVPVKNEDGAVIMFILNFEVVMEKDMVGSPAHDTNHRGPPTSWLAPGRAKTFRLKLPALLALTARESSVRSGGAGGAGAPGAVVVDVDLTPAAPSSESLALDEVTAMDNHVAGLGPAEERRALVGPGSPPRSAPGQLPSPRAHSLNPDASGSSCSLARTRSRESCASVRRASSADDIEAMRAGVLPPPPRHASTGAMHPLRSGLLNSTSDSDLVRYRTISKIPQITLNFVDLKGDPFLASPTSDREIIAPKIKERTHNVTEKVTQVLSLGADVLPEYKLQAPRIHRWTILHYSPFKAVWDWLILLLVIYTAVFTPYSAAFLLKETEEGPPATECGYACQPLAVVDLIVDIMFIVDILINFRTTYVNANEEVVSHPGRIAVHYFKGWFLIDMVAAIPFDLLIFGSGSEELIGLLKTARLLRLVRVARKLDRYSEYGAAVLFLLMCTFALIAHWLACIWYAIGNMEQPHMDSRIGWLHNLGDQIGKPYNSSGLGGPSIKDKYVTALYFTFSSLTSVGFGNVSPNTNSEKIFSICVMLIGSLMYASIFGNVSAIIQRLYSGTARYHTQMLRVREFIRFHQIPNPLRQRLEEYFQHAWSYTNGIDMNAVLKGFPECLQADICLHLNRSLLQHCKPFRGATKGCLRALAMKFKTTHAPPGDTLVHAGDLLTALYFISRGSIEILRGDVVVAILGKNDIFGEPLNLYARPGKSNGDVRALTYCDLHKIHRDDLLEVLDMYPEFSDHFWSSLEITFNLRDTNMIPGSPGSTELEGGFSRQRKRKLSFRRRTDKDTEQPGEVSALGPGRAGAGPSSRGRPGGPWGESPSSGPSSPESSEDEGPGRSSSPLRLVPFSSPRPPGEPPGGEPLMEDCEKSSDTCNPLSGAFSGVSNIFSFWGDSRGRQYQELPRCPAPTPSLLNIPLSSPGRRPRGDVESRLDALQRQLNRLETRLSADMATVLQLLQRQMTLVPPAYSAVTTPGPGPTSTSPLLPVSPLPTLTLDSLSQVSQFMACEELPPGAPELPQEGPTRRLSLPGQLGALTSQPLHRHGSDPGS
# Measurement notes: in vitro
# Particulars: CHO cells expressing human cloned ERG
Endpoint label: inhibition at 1 µM (%)

Smiles input: O=S(=O)(NCCCN1CCN(c2noc3ccccc23)CC1)c1ccc(OC(F)(F)F)cc1
Result unit: %
Number: 10
//
Smiles input: O=S(=O)(NCCCCN1CCN(c2nsc3ccccc23)CC1)c1cc2ccccc2s1
Result unit: %
Number: 11
//
Smiles input: Cc1c(S(=O)(=O)NCCCN2CCN(c3nsc4ccccc34)CC2)sc2ccc(F)cc12
Result unit: %
Number: 3
//
Smiles input: O=S(=O)(NCCCCN1CCC(c2noc3cc(F)ccc23)CC1)c1ccc(Cl)c(Cl)c1
Result unit: %
Number: 82
//
Smiles input: O=S(=O)(NCCCCN1CCC(c2noc3cc(F)ccc23)CC1)c1cnc2ccccn12
Result unit: %
Number: 47
//
Smiles input: O=S(=O)(NCCCN1CCC(c2noc3cc(F)ccc23)CC1)c1cccs1
Result unit: %
Number: 53
//
Smiles input: O=S(=O)(NCCCCN1CCN(c2noc3ccccc23)CC1)c1cccc2scnc12
Result unit: %
Number: 26
//
Smiles input: O=S(=O)(NCCCCN1CCN(c2nsc3ccccc23)CC1)c1cccs1
Result unit: %
Number: 40
//
Smiles input: Cc1c(S(=O)(=O)NCCCCN2CCC(c3noc4cc(F)ccc34)CC2)sc2ccc(Cl)cc12
Result unit: %
Number: 0
//
Smiles input: Cc1cccc(S(=O)(=O)NCCCN2CCC(c3noc4cc(F)ccc34)CC2)c1
Result unit: %
Number: 52
//
Smiles input: O=S(=O)(NCCCCN1CCN(c2nsc3ccccc23)CC1)c1cnc2ccccn12
Result unit: %
Number: 17
//
Smiles input: O=S(=O)(NCCCN1CCN(c2noc3ccccc23)CC1)c1ccc2ccccc2c1
Result unit: %
Number: 29
//
Smiles input: O=S(=O)(NCCCN1CCC(c2noc3cc(F)ccc23)CC1)c1ccc(Cl)c(Cl)c1
Result unit: %
Number: 69
//
Smiles input: O=S(=O)(NCCCN1CCC(c2noc3cc(F)ccc23)CC1)c1ccc2ccccc2c1
Result unit: %
Number: 63
//
Smiles input: O=S(=O)(NCCCCN1CCC(c2noc3cc(F)ccc23)CC1)c1ccc(OC(F)(F)F)cc1
Result unit: %
Number: 73
//
Smiles input: O=S(=O)(NCCCCN1CCN(c2nsc3ccccc23)CC1)c1ccc(Cl)c(Cl)c1
Result unit: %
Number: 45
//
Smiles input: O=S(=O)(NCCCCN1CCN(c2noc3ccccc23)CC1)c1ccc(Cl)c(Cl)c1
Result unit: %
Number: 24
//
Smiles input: O=S(=O)(NCCCN1CCN(c2nsc3ccccc23)CC1)c1cc2ccc(Cl)cc2s1
Result unit: %
Number: 0
//
Smiles input: O=S(=O)(NCCCCN1CCN(c2noc3ccccc23)CC1)c1cc2ccccc2s1
Result unit: %
Number: 14
//
Smiles input: O=S(=O)(NCCCCN1CCN(c2noc3ccccc23)CC1)c1ccc2ccccc2c1
Result unit: %
Number: 0

###

# Tgt: 5-hydroxytryptamine receptor 7 (Homo sapiens, UniProt P34969)
# Sequence (P34969 whole entry): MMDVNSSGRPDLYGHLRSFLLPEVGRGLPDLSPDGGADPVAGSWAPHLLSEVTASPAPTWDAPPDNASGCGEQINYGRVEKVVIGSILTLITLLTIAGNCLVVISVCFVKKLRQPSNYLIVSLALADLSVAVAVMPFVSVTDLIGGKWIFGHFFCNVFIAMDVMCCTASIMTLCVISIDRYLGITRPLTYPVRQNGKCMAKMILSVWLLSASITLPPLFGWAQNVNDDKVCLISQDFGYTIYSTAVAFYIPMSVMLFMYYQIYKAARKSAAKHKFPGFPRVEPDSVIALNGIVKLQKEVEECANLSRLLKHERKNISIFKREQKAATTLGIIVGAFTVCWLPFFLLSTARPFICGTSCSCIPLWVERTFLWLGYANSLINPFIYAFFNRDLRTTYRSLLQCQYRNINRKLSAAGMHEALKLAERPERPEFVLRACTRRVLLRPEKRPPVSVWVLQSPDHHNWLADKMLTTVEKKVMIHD
# Measurement notes: biochemical
# Format: cell-based, CHO-K1
Rule for this label: 1.0 means Ki is less than 4 nM; 0.0 means Ki is at least 4 nM.

Smiles input: O=S(=O)(NCCCCN1CCN(c2nsc3ccccc23)CC1)c1cc2ccc(Cl)cc2s1
Class: 0.0
--
Smiles input: O=S(=O)(NCCCN1CCC(c2noc3cc(F)ccc23)CC1)c1cccs1
Class: 1.0
--
Smiles input: O=S(=O)(NCCCCN1CCN(c2noc3ccccc23)CC1)c1ccc(OC(F)(F)F)cc1
Class: 0.0
--
Smiles input: O=S(=O)(NCCCN1CCN(c2noc3ccccc23)CC1)c1ccc2cc(Cl)ccc2c1
Class: 0.0
--
Smiles input: O=S(=O)(NCCCN1CCN(c2noc3ccccc23)CC1)c1cccc2scnc12
Class: 0.0
--
Smiles input: O=S(=O)(NCCN1CCC(c2noc3cc(F)ccc23)CC1)c1cccc2ccccc12
Class: 1.0
--
Smiles input: Cc1cccc(S(=O)(=O)NCCCN2CCC(c3noc4cc(F)ccc34)CC2)c1
Class: 1.0
--
Smiles input: O=S(=O)(NCCCN1CCC(c2noc3cc(F)ccc23)CC1)c1ccc(Cl)c(Cl)c1
Class: 1.0
--
Smiles input: O=S(=O)(NCCCN1CCC(c2noc3cc(F)ccc23)CC1)c1cc2ccc(Cl)cc2s1
Class: 0.0
--
Smiles input: O=S(=O)(NCCCN1CCN(c2nsc3ccccc23)CC1)c1cccs1
Class: 0.0
--
Smiles input: O=S(=O)(NCCCCN1CCC(c2noc3cc(F)ccc23)CC1)c1csc2ccccc12
Class: 0.0
--
Smiles input: O=S(=O)(NCCCCN1CCN(c2nsc3ccccc23)CC1)c1cc2ccccc2s1
Class: 0.0
--
Smiles input: O=S(=O)(NCCCCN1CCN(c2noc3ccccc23)CC1)c1ccc2ccccc2c1
Class: 1.0
--
Smiles input: O=S(=O)(NCCCN1CCN(c2nsc3ccccc23)CC1)c1ccc(F)c(Cl)c1
Class: 0.0
--
Smiles input: Cc1cccc(S(=O)(=O)NCCN2CCC(c3noc4cc(F)ccc34)CC2)c1
Class: 1.0
--
Smiles input: O=S(=O)(NCCCN1CCN(c2noc3ccccc23)CC1)c1ccc(F)c(Cl)c1
Class: 0.0
--
Smiles input: O=S(=O)(NCCCCN1CCC(c2noc3cc(F)ccc23)CC1)c1ccc(F)c(Cl)c1
Class: 0.0
--
Smiles input: O=S(=O)(NCCCN1CCN(c2noc3ccccc23)CC1)c1cc2ccccc2s1
Class: 0.0
--
Smiles input: Cc1cccc(S(=O)(=O)NCCCN2CCN(c3noc4ccccc34)CC2)c1
Class: 0.0
--
Smiles input: O=S(=O)(NCCCN1CCC(c2noc3cc(F)ccc23)CC1)c1csc2ccccc12
Class: 1.0

###

# Tgt: Histamine H1 receptor (Homo sapiens, UniProt P35367)
# Sequence (P35367 whole entry): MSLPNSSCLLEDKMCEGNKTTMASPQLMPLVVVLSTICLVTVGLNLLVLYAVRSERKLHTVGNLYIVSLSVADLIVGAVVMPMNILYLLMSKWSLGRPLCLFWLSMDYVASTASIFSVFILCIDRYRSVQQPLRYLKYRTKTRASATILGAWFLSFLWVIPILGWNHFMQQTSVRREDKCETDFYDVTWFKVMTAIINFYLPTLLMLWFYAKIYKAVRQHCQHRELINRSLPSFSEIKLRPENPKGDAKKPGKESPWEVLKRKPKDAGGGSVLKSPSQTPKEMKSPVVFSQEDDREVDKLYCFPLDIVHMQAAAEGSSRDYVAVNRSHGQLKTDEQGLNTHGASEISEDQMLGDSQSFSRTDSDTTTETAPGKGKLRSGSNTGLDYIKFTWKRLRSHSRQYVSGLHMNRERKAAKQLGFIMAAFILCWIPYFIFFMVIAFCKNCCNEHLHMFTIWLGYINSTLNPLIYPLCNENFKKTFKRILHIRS
Endpoint label: Ki (nM)

Smiles input: O=S(=O)(NCCCCN1CCC(c2noc3cc(F)ccc23)CC1)c1cc2ccccc2s1
Number: 69

###

Target protein (sequence): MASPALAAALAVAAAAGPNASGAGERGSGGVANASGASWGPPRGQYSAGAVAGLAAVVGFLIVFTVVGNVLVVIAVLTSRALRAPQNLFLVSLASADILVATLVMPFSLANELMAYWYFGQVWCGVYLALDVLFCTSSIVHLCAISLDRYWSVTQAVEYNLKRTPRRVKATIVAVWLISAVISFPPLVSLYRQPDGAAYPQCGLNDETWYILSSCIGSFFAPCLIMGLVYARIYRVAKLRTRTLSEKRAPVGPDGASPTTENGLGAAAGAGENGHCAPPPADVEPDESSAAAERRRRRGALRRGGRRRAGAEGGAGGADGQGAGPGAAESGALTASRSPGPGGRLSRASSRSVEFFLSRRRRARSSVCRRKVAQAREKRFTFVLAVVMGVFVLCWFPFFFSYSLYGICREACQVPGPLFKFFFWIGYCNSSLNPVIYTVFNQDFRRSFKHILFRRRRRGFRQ
Endpoint label: Ki (nM)

Smiles input: O=S(=O)(NCCCCN1CCC(c2noc3cc(F)ccc23)CC1)c1cc2ccccc2s1
Number: 1.9
